- tgt: T1, recombinant hPEPT1 receptor domain (human PEPT1, amino acid residues 391-571), His-tag fusion protein (human, UniProt P46059 391-571)
- T1 construct: purified under denaturing conditions; coated on plates
- T1 sequence: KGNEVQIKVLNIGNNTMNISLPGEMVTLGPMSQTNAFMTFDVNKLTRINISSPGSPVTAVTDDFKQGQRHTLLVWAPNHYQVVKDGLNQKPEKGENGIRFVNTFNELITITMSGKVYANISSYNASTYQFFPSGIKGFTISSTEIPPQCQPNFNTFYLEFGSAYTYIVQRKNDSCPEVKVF
- assay: phage ELISA, OD on hPEPT1 over OD on BSA
Ends that are not written are not given here.
reportedEndpoint: PEPT1/BSA

[[record]]
binder = "SQVDSFRNSFRWYEPSRALCHGCGKRDTSTTRIHNSPSDSYPTR (cysteine pairing not given here; also: displayed as N-terminal pIII fusion on M13 phage, M13 phage displaying this insert as N-terminal pIII fusion; whole phage in the ELISA; not shown: M13 phage particle / pIII display carrier (and vector flanks)) [phage PAX17]"
reportedendpoint = "PEPT1/BSA"
reportedvalue = "5 ratio"

[[record]]
binder = "SFLRFQSPRFEDYSRTISRLRNATNPSNVSDAHNNRALA (also: displayed as N-terminal pIII fusion on M13 phage, M13 phage displaying this insert as N-terminal pIII fusion; whole phage in the ELISA; not shown: M13 phage particle / pIII display carrier (and vector flanks)) [phage PAX18]"
reportedendpoint = "PEPT1/BSA"
reportedvalue = "5 ratio"

[[record]]
binder = "RASTQGGRGVAPEFGASVLGRGCGSATYYTNSTSCKDAMGHNYS (cysteine pairing not given here; also: displayed as N-terminal pIII fusion on M13 phage, M13 phage displaying this insert as N-terminal pIII fusion; whole phage in the ELISA; not shown: M13 phage particle / pIII display carrier (and vector flanks)) [phage PAX40]"
reportedendpoint = "PEPT1/BSA"
reportedvalue = "6 ratio"


The binder listed as SARDSGPAEDGSRAVRLNGVENANTRKSSRSNPRGRRHP (also: displayed as N-terminal pIII fusion on M13 phage, M13 phage displaying this insert as N-terminal pIII fusion; whole phage in the ELISA; not shown: M13 pIII coat protein and phage particle (display carrier)) [phage P31] shows PEPT1/BSA equal to 11 ratio

Numbers sourced from patent US7053177B1.
